The origin of these recorded values is patent US10934310B2.

TARGET_OF_ASSAY: unphosphorylated-BTK kinase domain (UP-BTK), GST-tagged human BTK (389-659aa) (Homo sapiens (Human), UniProt Q06187)
Sequence (Q06187 389-659): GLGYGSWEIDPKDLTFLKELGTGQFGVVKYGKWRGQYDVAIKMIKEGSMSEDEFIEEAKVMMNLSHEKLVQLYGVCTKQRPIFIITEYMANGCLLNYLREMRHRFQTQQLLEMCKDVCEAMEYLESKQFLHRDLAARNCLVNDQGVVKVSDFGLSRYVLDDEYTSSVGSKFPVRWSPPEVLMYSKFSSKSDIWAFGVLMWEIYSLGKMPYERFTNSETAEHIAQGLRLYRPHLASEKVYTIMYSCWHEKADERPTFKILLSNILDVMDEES
RUN_DESCRIPTION: BTK Kinase Lanthascreen Binding Assay
TEST_CONDITIONS: compound, 50 nM Tracer 236, 2 nM anti-GST antibody, 60 minutes; pIC50 = negative log of the IC50 in molar
QUANTITY_MEASURED: BTK_I_binding pIC50

C=CC(=O)N[C@H]1CCCC[C@H]1NC(=O)c1sc2nccc3c2c1NC(=O)N3c1ccc(OC2CCC2)nc1C [Example 187] : 7.30
Cc1cc(Oc2ccccc2)ccc1N1C(=O)Nc2c(C(=O)N[C@@H]3CCC[C@@H]3N)sc3nccc1c23 (single isomer, unassigned) [Example 115] : 7.57
C=CC(=O)N[C@@H]1CCC[C@H]1NC(=O)c1sc2nccc3c2c1NC(=O)N3c1cnc(Oc2ccccc2)cc1C (single isomer, unassigned) : 8.18
Cc1cc(Oc2ccccc2)ccc1N1C(=O)Nc2c(C(=O)N[C@H]3CC[C@@H](N(C)C)C3)sc3nccc1c23 : 7.00
CN[C@H]1CCC[C@@H]1NC(=O)c1sc2nccc3c2c1NC(=O)N3c1ccc(Oc2ccccc2)cc1C : 6.14
C=CC(=O)N[C@@H]1CCC[C@H](NC(=O)c2sc3nccc4c3c2NC(=O)N4c2ccc(OC(C)C)cc2C)C1 (single isomer, unassigned) : 7.10

---

TARGET_OF_ASSAY: unphosphorylated-BTK kinase domain (UP-BTK), GST-tagged human BTK (389-659aa) (Homo sapiens (Human), UniProt Q06187)
RUN_DESCRIPTION: BTK Kinase Lanthascreen Binding Assay
TEST_CONDITIONS: read-out: BTK_I_binding pIC50 (converted)
Reported IC50 values are given for each entry in this list.

Record excerpt, results attached:
CNCC(=O)N[C@@H]1CC[C@H](NC(=O)c2sc3nccc4c3c2NC(=O)N4c2ccc(OC(C)C)cc2C)C1 : > 1000 nM
CC(=O)N[C@@H]1CCC[C@@H]1NC(=O)c1sc2nccc3c2c1NC(=O)N3c1ccnc(-c2ccccc2)c1 : > 1000 nM
CCC(=O)N[C@@H]1CCC[C@H](NC(=O)c2sc3nccc4c3c2NC(=O)N4c2ccc(Oc3ccccc3)nc2C)C1 (single isomer, unassigned) : > 1000 nM

## Task Give a short answer stating reported IC50 for C=CC(=O)N[C@@H]1CCC[C@H](NC(=O)c2sc3nccc4c3c2NC(=O)N4c2ccnc(-c3ccccc3)c2)C1 .
## Result > 1000 nM

## Task Give a short answer stating reported IC50 for CNCC(=O)N[C@@H]1CCC[C@@H]1NC(=O)c1sc2nccc3c2c1NC(=O)N3c1ccnc(-c2ccccc2)c1 .
## Result > 1000 nM

## Task Give a short answer stating reported IC50 for N[C@@H]1CC[C@H](NC(=O)c2sc3nccc4c3c2NC(=O)N4c2ccc(Oc3ccccc3)nc2)C1 (racemic) .
## Result 1700 nM

## Task Give a short answer stating reported IC50 for Cc1cc(Oc2ccccc2)ccc1N1C(=O)Nc2c(C(=O)NC3CCCCC3O)sc3nccc1c23 (racemic) .
## Result 110 nM

## Task Give a short answer stating reported IC50 for CC(=O)N[C@H]1CC[C@H](NC(=O)c2sc3nccc4c3c2NC(=O)N4c2ccc(Oc3ccccc3)nc2C)C1 (single isomer, unassigned) .
## Result > 1000 nM

## Task Give a short answer stating reported IC50 for N[C@H]1CCC[C@H]1NC(=O)c1sc2nccc3c2c1NC(=O)N3c1cncc(-c2ccccc2)c1 .
## Result > 1000 nM

## Task Give a short answer stating reported IC50 for O=C(N[C@@H]1CCC[C@H]1O)c1sc2nccc3c2c1NC(=O)N3c1ccnc(-c2ccccc2)c1 .
## Result 631 nM

## Task Give a short answer stating reported IC50 for C=CC(=O)N[C@H]1CCCC[C@H]1NC(=O)c1sc2nccc3c2c1NC(=O)N3c1ccc(Oc2cccnn2)cc1 .
## Result > 1000 nM

## Task Give a short answer stating reported IC50 for Cc1cc(OC(C)C)ccc1N1C(=O)Nc2c(C(=O)N[C@@H]3CCC[C@H]3O)sc3nccc1c23 .
## Result > 1000 nM

## Task Give a short answer stating reported IC50 for C=CC(=O)N[C@H]1CCC[C@H](NC(=O)c2sc3nccc4c3c2NC(=O)N4c2ccc(OC(C)C)cc2C)C1 (single isomer, unassigned) .
## Result > 1000 nM

## Task Give a short answer stating reported IC50 for CC(C)Oc1ccc(N2C(=O)Nc3c(C(=O)N[C@@H]4CCC[C@@H]4N)sc4nccc2c34)cc1 .
## Result > 1000 nM

---

TARGET_OF_ASSAY: unphosphorylated-BTK kinase domain (UP-BTK), GST-tagged human BTK (389-659aa) (Homo sapiens (Human), UniProt Q06187)
RUN_DESCRIPTION: BTK Kinase Lanthascreen Binding Assay
TEST_CONDITIONS: compound, 50 nM Tracer 236, 2 nM anti-GST antibody, 60 minutes; pIC50 = negative log of the IC50 in molar
QUANTITY_MEASURED: BTK_I_binding pIC50

C=CC(=O)N[C@H]1CCC[C@H]1NC(=O)c1sc2nccc3c2c1NC(=O)N3c1cnnc(-c2ccccc2)c1 : 8.06
Cc1cc(Oc2ccccc2)ccc1N1C(=O)Nc2c(C(=O)N[C@H]3CCCC[C@H]3N)sc3nccc1c23 : 6.12
Cc1cc(Oc2ccccc2)ccc1N1C(=O)Nc2c(C(=O)N[C@@]34C[C@@H]5C[C@@H](C[C@@](O)(C5)C3)C4)sc3nccc1c23 : 6.36
C=CC(=O)N[C@H]1CCCC[C@H]1NC(=O)c1sc2nccc3c2c1NC(=O)N3c1ccc(Oc2ccccc2)cc1 : 8.12
CC(=O)N[C@H]1CC[C@@H](NC(=O)c2sc3nccc4c3c2NC(=O)N4c2ccc(Oc3ccccc3)cc2C)CC1 [Example 64] : 7.28
C=CC(=O)N[C@H]1CCC[C@H]1NC(=O)c1sc2nccc3c2c1NC(=O)N3c1ccc(Oc2ccccn2)cc1C : 8.16
N[C@H]1CCC[C@H]1NC(=O)c1sc2nccc3c2c1NC(=O)N3c1cc(-c2ccccc2)ccn1 : 6.21

---

TARGET_OF_ASSAY: unphosphorylated-BTK kinase domain (UP-BTK), GST-tagged human BTK (389-659aa) (Homo sapiens (Human))
RUN_DESCRIPTION: BTK Kinase Lanthascreen Binding Assay
TEST_CONDITIONS: compound, 50 nM Tracer 236, 2 nM anti-GST antibody, 60 minutes; pIC50 = negative log of the IC50 in molar
QUANTITY_MEASURED: BTK_I_binding pIC50

Cc1cc(Oc2ccccc2)ccc1N1C(=O)Nc2c(C(=O)N[C@H]3CCC[C@H]3NC(=O)CN)sc3nccc1c23 (single isomer, unassigned) : 6.36
O=C(NCC1(O)CCCCC1)c1sc2nccc3c2c1NC(=O)N3c1ccc(Oc2ccccc2)cc1 : 6.25
C=CC(=O)N[C@@H]1CCCC[C@H]1NC(=O)c1sc2nccc3c2c1NC(=O)N3c1ccnc(-c2ccccc2)c1 : 6.76
Cc1cc(Oc2ccccc2)ccc1N1C(=O)Nc2c(C(=O)N[C@H]3CCC[C@H]3N(C)C)sc3nccc1c23 : 6.01
CC(=O)N[C@H]1CC[C@@H](NC(=O)c2sc3nccc4c3c2NC(=O)N4c2ccc(Oc3ccccc3)cc2C)CC1 (single isomer, unassigned) [Example 94] : 7.59
O=C(N[C@@H]1CCC[C@@H](O)C1)c1sc2nccc3c2c1NC(=O)N3c1ccc(Oc2ccccc2)cc1 : 7.23

---

TARGET_OF_ASSAY: unphosphorylated-BTK kinase domain (UP-BTK), GST-tagged human BTK (389-659aa) (Homo sapiens (Human))
RUN_DESCRIPTION: BTK Kinase Lanthascreen Binding Assay
TEST_CONDITIONS: Lanthascreen binding, 60 minutes incubation; pIC50 = negative log of the IC50 in molar
QUANTITY_MEASURED: BTK_I_binding pIC50

C=CC(=O)N[C@@H]1CCCC[C@H]1NC(=O)c1sc2nccc3c2c1NC(=O)N3c1ccc(Oc2ccccc2)nc1C (single isomer, unassigned) : 6.81
N[C@@H]1CCCC[C@@H]1NC(=O)c1sc2nccc3c2c1NC(=O)N3c1ccc(Oc2ccccc2)cc1 : 5.81
C=CC(=O)N[C@@H]1CC[C@@H](NC(=O)c2sc3nccc4c3c2NC(=O)N4c2cnc(Oc3ccccc3)cc2C)C1 (single isomer, unassigned) : 6.85
CN[C@H]1CCN(C(=O)c2sc3nccc4c3c2NC(=O)N4c2ccc(Oc3ccccc3)cc2C)C1 : 5.89
Cc1cc(Oc2ccccc2)ncc1N1C(=O)Nc2c(C(=O)N[C@@H]3CCCC[C@@H]3N)sc3nccc1c23 (single isomer, unassigned) : 6.92
CC(=O)NC1CCC[C@H](NC(=O)c2sc3nccc4c3c2NC(=O)N4c2cnc(Oc3ccccc3)cc2C)C1 (single isomer, unassigned) : 6.05
